All values here come from patent US20150274657A1.

# Test Target: human Nav1.6 ion channels (Homo sapiens)
# Construct: host or cells: CHO
# Measurement Description: IonWorks electrophysiological assay on CHO cells expressing human Nav1.6
# Format: cell-based
# Run Conditions: inactivated state inhibition (Pulse 2), CHO human Nav1.6 expressing cells, read-out: Nav1.6 Inactivated
For each of the compounds below, state its IC50.
State the answer as a number, implicitly in nM.

Lookup: IC50 lookup needed for O=C(NCc1ccccn1)C1CCN(Cc2cccc(Oc3ccccc3)c2)C1 (racemic) , thanks.
Found: 353

Lookup: # lookup: IC50 of CCCNC(=O)C1(C)CCN(Cc2cccc(OC(=O)c3ccccc3)c2)C1 (stereo not shown)
Found: 1610

Lookup: Which measured IC50 value corresponds to COC1CCN(C(=O)C2CCN(Cc3cccc(Oc4ccccc4)c3)C2)CC1 (racemic) ?
Found: 1090

Lookup: Which measured IC50 value corresponds to CN(Cc1ccccn1)C(=O)C1(C)CCN(Cc2cccc(Oc3ccccc3)c2)C1 (racemic) ?
Found: 473

Lookup: Tell me the measured IC50 of CC(C)COc1cccc(CN2CCC(C)(C(=O)N(C)Cc3ccccn3)C2)c1 (racemic) , please.
Found: 752

Lookup: Fill blank: measured IC50 of the compound CCCNC(=O)C1(C)CCN(Cc2csc(-c3ccc(Cl)cc3)n2)C1 (stereo not shown) is ____.
Found: 1030

Lookup: Item CC1CN(C(=O)C2CCN(Cc3cccc(Oc4ccccc4)c3)C2)CCO1 (racemic) has what recorded IC50?
Found: 1440

Lookup: Could you tell me which IC50 is on file for CN1CCN(C(=O)C2(C)CCN(Cc3cccc(Oc4ccccc4)c3)C2)CC1 (racemic) ?
Found: 1910

Lookup: Look at this compound and give its reported IC50. CC(C)COc1cccc(CN2CCC(C)(C(=O)NCc3ccccn3)C2)c1 (racemic)
Found: 445

Lookup: Please give the measured IC50 for this compound: CCNC(=O)C1CCN(Cc2cccc(Oc3ccccc3)c2)C1 (racemic)
Found: 621

Lookup: Which IC50 is reported for this compound? CC1(C(=O)NCc2ccccn2)CCN(Cc2csc(-c3ccccc3)n2)C1 (racemic)
Found: 1080

Lookup: Reported IC50 for CCCNC(=O)C1(C)CCN(Cc2ccc(-c3ccccc3)o2)C1 (stereo not shown) : what is it?
Found: 785

Lookup: For COC(=O)C1(C)CCN(Cc2cccc(OCC(C)C)c2)C1 (racemic) , what is its reported IC50?
Found: 994

* * *

Exercise: for every item that follows, state its recorded pIC50.
# Test Target: human Nav1.6 ion channels (Homo sapiens, UniProt Q9UQD0)
# Construct: host or cells: CHO
# Sequence (Q9UQD0 whole entry): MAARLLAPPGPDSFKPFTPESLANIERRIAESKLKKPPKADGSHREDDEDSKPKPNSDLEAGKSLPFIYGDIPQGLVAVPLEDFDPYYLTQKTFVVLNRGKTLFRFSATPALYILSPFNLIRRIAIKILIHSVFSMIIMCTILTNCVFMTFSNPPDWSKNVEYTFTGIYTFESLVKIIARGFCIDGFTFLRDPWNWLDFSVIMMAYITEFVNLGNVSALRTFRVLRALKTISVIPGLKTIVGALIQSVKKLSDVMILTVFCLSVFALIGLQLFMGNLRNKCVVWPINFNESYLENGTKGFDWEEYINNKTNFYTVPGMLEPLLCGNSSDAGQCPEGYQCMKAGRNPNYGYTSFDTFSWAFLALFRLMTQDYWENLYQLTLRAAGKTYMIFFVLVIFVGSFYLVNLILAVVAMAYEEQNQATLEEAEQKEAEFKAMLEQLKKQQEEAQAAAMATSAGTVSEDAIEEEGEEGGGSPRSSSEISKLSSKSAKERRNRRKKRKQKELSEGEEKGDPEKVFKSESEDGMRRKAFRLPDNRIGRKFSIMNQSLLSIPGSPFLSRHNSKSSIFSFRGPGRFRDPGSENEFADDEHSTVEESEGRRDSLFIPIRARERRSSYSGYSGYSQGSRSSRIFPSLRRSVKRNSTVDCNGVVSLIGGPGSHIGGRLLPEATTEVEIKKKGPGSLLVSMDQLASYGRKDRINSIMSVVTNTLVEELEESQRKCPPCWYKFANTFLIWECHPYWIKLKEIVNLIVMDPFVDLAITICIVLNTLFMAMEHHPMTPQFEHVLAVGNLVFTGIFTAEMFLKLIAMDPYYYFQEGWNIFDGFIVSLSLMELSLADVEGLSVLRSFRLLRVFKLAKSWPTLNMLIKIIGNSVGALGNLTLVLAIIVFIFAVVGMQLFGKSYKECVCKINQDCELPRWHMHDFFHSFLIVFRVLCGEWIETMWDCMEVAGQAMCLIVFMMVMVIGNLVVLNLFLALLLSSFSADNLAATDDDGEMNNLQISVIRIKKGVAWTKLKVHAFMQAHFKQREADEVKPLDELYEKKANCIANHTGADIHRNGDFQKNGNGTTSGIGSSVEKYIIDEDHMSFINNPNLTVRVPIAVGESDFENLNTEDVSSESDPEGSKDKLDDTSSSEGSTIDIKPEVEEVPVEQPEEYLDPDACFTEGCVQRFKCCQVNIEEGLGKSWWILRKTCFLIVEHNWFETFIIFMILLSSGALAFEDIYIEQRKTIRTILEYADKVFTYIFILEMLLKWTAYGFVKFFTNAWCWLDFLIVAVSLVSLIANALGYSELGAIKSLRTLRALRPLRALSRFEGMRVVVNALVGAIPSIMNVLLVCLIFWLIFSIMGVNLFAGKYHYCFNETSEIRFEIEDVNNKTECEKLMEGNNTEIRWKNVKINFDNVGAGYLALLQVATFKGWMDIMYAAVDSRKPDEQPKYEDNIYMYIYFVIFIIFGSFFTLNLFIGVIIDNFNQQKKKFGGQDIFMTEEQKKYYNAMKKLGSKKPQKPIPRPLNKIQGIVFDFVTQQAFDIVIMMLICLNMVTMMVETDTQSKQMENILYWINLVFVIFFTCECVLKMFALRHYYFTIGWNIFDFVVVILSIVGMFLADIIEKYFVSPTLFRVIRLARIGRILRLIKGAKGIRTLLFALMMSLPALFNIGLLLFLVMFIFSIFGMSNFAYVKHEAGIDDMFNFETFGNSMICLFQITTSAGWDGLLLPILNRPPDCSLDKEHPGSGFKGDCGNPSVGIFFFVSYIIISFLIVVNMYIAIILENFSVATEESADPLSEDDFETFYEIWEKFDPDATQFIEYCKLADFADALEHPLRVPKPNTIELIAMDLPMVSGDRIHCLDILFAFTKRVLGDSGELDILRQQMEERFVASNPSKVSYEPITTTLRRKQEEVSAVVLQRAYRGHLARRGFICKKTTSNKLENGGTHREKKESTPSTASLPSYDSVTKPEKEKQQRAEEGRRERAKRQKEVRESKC
# Measurement Description: IonWorks electrophysiological assay on CHO cells expressing human Nav1.6
# Format: cell-based
# Run Conditions: closed (tonic) state inhibition (Pulse 1), CHO human Nav1.6 expressing cells, read-out: Nav1.6 Tonic
Bear in mind: pIC50 is minus log10 of a mol/L concentration; give just that figure.

Lookup: // map CCCNC(=O)C1(C)CCN(Cc2ccc(OC)c3ccccc23)C1 (stereo not shown) to recorded pIC50 (system: human Nav1.6 ion channels (Homo sapiens, UniProt Q9UQD0))
Found: 4.63

Lookup: Short answer please: pIC50, human Nav1.6 ion channels (Homo sapiens, UniProt Q9UQD0), entry CCNC(=O)[C@@]1(C)CCN(Cc2cccc(Oc3ccccc3)c2)C1 (single isomer, unassigned)
Found: 4.70

Lookup: Please tell me: pIC50 of CCNC(=O)[C@]1(C)CCN(Cc2cccc(Oc3ccccc3)c2)C1 (single isomer, unassigned) , system human Nav1.6 ion channels (Homo sapiens, UniProt Q9UQD0)?
Found: 4.80

Lookup: Tell me reported pIC50 for O=C(NCc1ccccn1)C1CCN(Cc2cccc(Oc3ccccc3)c2)C1 (racemic) , tested with human Nav1.6 ion channels (Homo sapiens, UniProt Q9UQD0).
Found: 4.79

Lookup: API: value(readout=pIC50, system=human Nav1.6 ion channels (Homo sapiens, UniProt Q9UQD0)) for record CC1(C(=O)NCc2ccncc2)CCN(Cc2cccc(Oc3ccccc3)c2)C1 (racemic)
Found: 4.79

Lookup: Request body: readout pIC50, system human Nav1.6 ion channels (Homo sapiens, UniProt Q9UQD0), query CCCNC(=O)C1(C)CCN(Cc2csc(-c3ccc(Cl)cc3)n2)C1 (stereo not shown) . Return the value.
Found: 4.83

Lookup: Missing value: pIC50, human Nav1.6 ion channels (Homo sapiens, UniProt Q9UQD0), entry CC1(C(=O)N2CCOCC2)CCN(Cc2cccc(Oc3ccccc3)c2)C1 (racemic) . Fill in?
Found: 4.81

Lookup: Item O=C(NCc1cccnc1)[C@@H]1CCN(Cc2cccc(Oc3ccccc3)c2)C1 with human Nav1.6 ion channels (Homo sapiens, UniProt Q9UQD0) - pIC50?
Found: 4.52

Lookup: Enter reported pIC50 observed with human Nav1.6 ion channels (Homo sapiens, UniProt Q9UQD0) for CCCNC(=O)C1(C)CCN(Cc2ccc(-c3ccccc3)o2)C1 (stereo not shown)
Found: 4.51
